# Tested on: LOC_OS05G30820-cb001
# experiment.description: thermal shift delta Tm vs DMSO control; higher = stronger stabilization (binding);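 further: purified Escherichia coli-expressed rice kinase domain construct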
# details: 12.5 µM; protein concentration 2 µM
reported.property: thermal shift delta Tm
# number then unit; no other words

So, O=C(Nc1cc(C(F)(F)F)cc(C(F)(F)F)c1)c1cc(Cl)ccc1O ? Its thermal shift delta Tm was 0.67 °C

So, c1cncc(CN2CCC(n3ncc4c(N5CCOCC5)nc(-c5ccc6[nH]ccc6c5)nc43)CC2)c1 ? Its thermal shift delta Tm was 0.62 °C

So, O=c1sn(-c2cccc3ccccc23)c(=O)n1Cc1ccccc1 [Tideglusib] ? Its thermal shift delta Tm was 0.39 °C

response.value for O=C(NC[C@H](O)CO)c1ccncc1Nc1ccc(I)cc1F (field: thermal shift delta Tm) = 0.65 °C

###

# Tested on: LOC_OS01G39600-cb002
# experiment.description: thermal shift delta Tm vs DMSO control; higher = stronger stabilization (binding)
# details: 12.5 µM; protein concentration 2 µM
reported.property: thermal shift delta Tm (°C)
The response must be a number in °C with no trailing unit.

thermal shift delta Tm in this record for COc1cc2ncnc(Nc3ccc(O)c(Br)c3)c2cc1OC : -1.06

Sample O=C(Nc1ccccc1C(=O)NC1CCCCNC1=O)c1cc2ccccc2s1 (stereo not given) ; thermal shift delta Tm observed: -0.76

What the record says about CCCS(=O)(=O)Nc1ccc(F)c(C(=O)c2c[nH]c3ncc(-c4ccc(Cl)cc4)cc23)c1F [Vemurafenib (PLX4032, RG7204)] : thermal shift delta Tm is 11.7

Field thermal shift delta Tm (entry Cc1cc(CN2CCN(c3c(Br)cnc4nc(-c5ccc(N6CCN(C)CC6)cc5)[nH]c34)CC2)no1 ) reads 4.92

Entry CC1(C)CNc2cc(NC(=O)c3cccnc3NCc3ccncc3)ccc21 [Motesanib Diphosphate (AMG-706)] ; thermal shift delta Tm = -0.19

Just so you know, measured thermal shift delta Tm for O=C(c1ccc(Nc2nccc(-c3cc4ccccc4s3)n2)cc1)N1CCC(N2CCCC2)CC1 [IKK-16 (IKK Inhibitor VII)] came out at 8.28

Please fill in: thermal shift delta Tm reported for CC(C)(CO)n1cc(C(=O)c2cncc(NC(=O)Cc3ccc(Cl)cn3)c2)c2cnc(N)nc21 = 0.32

Entry Cc1c(Cn2c(C)nc3c(C(=O)O)cc(N4CCOCC4)cc32)cccc1C(F)(F)F ; thermal shift delta Tm = 0.55

Lab note: Cc1c(C(=O)Nc2ccc(Oc3ccnc4[nH]cc(-c5ccccc5)c34)c(F)c2)c(=O)n(-c2ccc(F)cc2)n1C gave thermal shift delta Tm of 2.37

Please fill in: thermal shift delta Tm reported for O=C(c1ccc(/C=C/c2n[nH]c3ccccc23)cc1)N1CCNCC1 = 5.76

Item: COc1cc2ncnc(Nc3ccc(Oc4ccccc4)cc3C)c2cc1OC | thermal shift delta Tm: 0.05

Briefly, thermal shift delta Tm measured for Oc1ccc(-c2nc(-c3ccc(F)cc3)c(-c3ccncc3)[nH]2)cc1 : -0.06

Given item C#Cc1cccc(Nc2ncnc3cc(OCCOC)c(OCCO)cc23)c1 , the value recorded as its thermal shift delta Tm is 2.63

thermal shift delta Tm in this record for O=C1NC(=O)/C(=C/c2ccc3nccc(-c4ccncc4)c3c2)S1 : 1.76

Value of thermal shift delta Tm reported for the molecule Cc1ncc(-c2ccnc(Nc3ccc(S(C)(=O)=O)cc3)n2)n1C(C)C is 2.92

CN1CC(O)C2=C/C(=N/NC(N)=O)C(=O)C=C21 (stereo not given) [Carbazochrome] yielded thermal shift delta Tm of 0.14

The molecule listed as CCOc1cc(N2CCC(O)CC2)ccc1Nc1ncc2c(n1)N(C)c1ccccc1C(=O)N2C shows thermal shift delta Tm equal to -0.54

Consider C=CC(=O)Nc1cccc(Oc2nc(Nc3ccc(N4CCN(C)CC4)cc3)nc3ccsc23)c1 . Its measured thermal shift delta Tm is 0.15

Field thermal shift delta Tm (entry CCN1C(=O)CNc2ncc(-c3ccc(-c4nc[nH]n4)nc3C)nc21 ) reads -1.87

Data point: O=c1nc(N2CCOCC2)oc2c(-c3cccc4c3sc3ccccc34)cccc12 ; thermal shift delta Tm = -0.5

The recorded thermal shift delta Tm for CC[C@@H]1C(=O)N(C)c2cnc(Nc3ccc(C(=O)NC4CCN(C)CC4)cc3OC)nc2N1C1CCCC1 is 0.36

Field thermal shift delta Tm (entry Cc1ccc(S(=O)(=O)/C=C/C#N)cc1 ) reads -1.97

Noted for c1cc(-c2cnn3cc(-c4ccc(OCCN5CCCCC5)cc4)cnc23)ccn1 [Dorsomorphin 2HCl] : its thermal shift delta Tm reads 7.6

thermal shift delta Tm for N#Cc1ccc(-c2c(-c3ncn[nH]3)sc(N3CCOCC3)c2C#N)c(F)c1 is 0.28

thermal shift delta Tm in this record for Cc1ccc(NC(=O)c2cccc(N(C)C)c2)cc1NC(=O)c1ccc(O)cc1 : -0.01

Entry CC(C)Nc1cc(-c2c[nH]c(C(=O)N[C@H](CO)c3cccc(Cl)c3)c2)c(Cl)cn1 , thermal shift delta Tm reported as 1.63

Entry Cc1ncc(CO)c(CO)c1O [Pyridoxine] , thermal shift delta Tm reported as -0.13

thermal shift delta Tm in this record for N#C/C(=C\c1ccc(O)c(O)c1)C(=O)NCc1ccccc1 [AG-490 (Tyrphostin B42)] : -0.2

thermal shift delta Tm for COc1cc(OC)c(/C=C/S(=O)(=O)Cc2ccc(OC)c(NCC(=O)O)c2)c(OC)c1 is -0.03

// sample N#Cc1ccc2ncnc(NCCc3ccccc3)c2c1 [Senexin A] , its thermal shift delta Tm was 0.66
